target: CDK4/Cyclin D1 (Homo sapiens (Human)); assay: CDK4/Cyclin D1 kinase TR-FRET inhibition assay; conditions: 1 mM ATP, Rb (Ser780)-biotin substrate, read-out: CDK4D1 IC50
Sequence (P11802 whole entry): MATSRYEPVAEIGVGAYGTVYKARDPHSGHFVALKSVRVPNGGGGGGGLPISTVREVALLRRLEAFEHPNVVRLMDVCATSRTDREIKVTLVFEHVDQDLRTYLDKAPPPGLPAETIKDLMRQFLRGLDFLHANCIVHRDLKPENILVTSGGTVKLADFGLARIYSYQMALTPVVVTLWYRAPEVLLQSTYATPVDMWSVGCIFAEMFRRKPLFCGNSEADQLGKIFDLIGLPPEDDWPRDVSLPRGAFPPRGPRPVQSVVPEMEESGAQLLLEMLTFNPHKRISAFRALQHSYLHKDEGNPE
Sequence (P24385 whole entry partner): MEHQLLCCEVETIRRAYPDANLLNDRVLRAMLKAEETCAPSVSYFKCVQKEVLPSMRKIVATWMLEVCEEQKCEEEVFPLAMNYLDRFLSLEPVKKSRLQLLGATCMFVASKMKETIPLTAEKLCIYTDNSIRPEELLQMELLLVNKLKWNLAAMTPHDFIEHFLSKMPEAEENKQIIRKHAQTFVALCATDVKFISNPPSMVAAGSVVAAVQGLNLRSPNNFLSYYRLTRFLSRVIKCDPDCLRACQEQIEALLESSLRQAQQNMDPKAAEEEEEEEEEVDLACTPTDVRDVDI
Recorded metric: IC50 (nM)

Compound | System name | IC50 / nM
CC(C)c1c(CN2CCOCC2=O)cnc2ccc(-c3nc(N[C@@H]4CCOC[C@H]4O)ncc3F)cc12 | CDK4/Cyclin D1 (Homo sapiens (Human)) | 16

1 = Cc1cnc2ccc(-c3nc(N[C@@H]4CCOC[C@H]4O)ncc3F)cc2c1C(C)C
2 = CC(C)c1c(CN[C@H]2CCCOC2)cnc2ccc(-c3nc(N[C@@H]4CCOC[C@H]4O)ncc3F)cc12
3 = CC(C)c1c(CN2CCC[C@H](O)C2)cnc2ccc(-c3nc(N[C@@H]4CCOC[C@H]4O)ncc3F)cc12
4 = CC(C)c1c(CNc2ccccn2)cnc2ccc(-c3nc(N[C@@H]4CCOC[C@H]4O)ncc3F)cc12
Kindly order the items shown according to IC50, from the highest value down. Note for the reader: the ranking is given by listing the labels in the order requested.
4, 2, 3, 1
(4: 46 nM, 2: 27 nM, 3: 18 nM, 1: 9.3 nM)
